# targetOfAssay: Peroxisome proliferator-activated receptor gamma (Homo sapiens)
# Sequence (P37231 whole entry): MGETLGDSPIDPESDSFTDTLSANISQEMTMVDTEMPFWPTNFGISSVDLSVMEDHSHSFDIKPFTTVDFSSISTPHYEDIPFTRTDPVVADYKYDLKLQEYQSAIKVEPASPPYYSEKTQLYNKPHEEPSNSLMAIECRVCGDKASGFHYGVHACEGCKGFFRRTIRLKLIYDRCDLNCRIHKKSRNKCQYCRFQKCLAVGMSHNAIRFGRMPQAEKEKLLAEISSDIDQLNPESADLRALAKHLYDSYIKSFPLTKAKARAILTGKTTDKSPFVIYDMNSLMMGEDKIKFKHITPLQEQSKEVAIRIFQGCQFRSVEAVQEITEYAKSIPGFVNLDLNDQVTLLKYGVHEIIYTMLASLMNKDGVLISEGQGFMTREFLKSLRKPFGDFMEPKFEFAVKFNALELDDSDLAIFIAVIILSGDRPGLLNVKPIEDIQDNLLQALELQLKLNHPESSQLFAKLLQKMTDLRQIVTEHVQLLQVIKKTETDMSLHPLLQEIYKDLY
# testName: Binding affinity to human recombinant PPARgamma by Cheng-Prusoff equation based competitive binding TR-FRET assay
resultType: pKi
Answers are plain numbers, as −log10 of the molar value.

>>> measvalue("COc1ccc(OC)c(/C=C/C(=O)OCc2cc(=O)c(O)co2)c1")
5.15

Consider now this further compound.
Incoming: Request the reported pKi associated with COc1cccc(/C=C/C(=O)OCc2cc(=O)c(O)co2)c1OC
Outgoing: 5.17
